- measuredTarget: T1, MUC1-ECD (human, UniProt P15941 1098-1155)
- T1 construct: also called Ag MUC1-ECD; Antigen MUC1-ECD
- T1 sequence: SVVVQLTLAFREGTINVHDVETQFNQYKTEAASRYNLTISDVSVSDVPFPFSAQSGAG
- methodDescription: SPR Biacore T200, antibody on chip, MUC1-ECD analyte, 1:1 fit
readoutType: koff (s⁻¹)
# output: bare number, implied unit s⁻¹

**Q:** If you can, please state the reported koff value of VH5 + VL3 (antibody, human IgG1, kappa, V domains shown, Full-length humanized IgG expressed in HEK293 and purified on protein A. Constant regions not specified; also called #23 (inferred from 5x5 numbering)) VH: EVQLVQSGAEVKKPGESLKISCKGSGFTFNYFWIEWVRQMPGKGLEWMGEILPGTGSTNYNEKFKGQVTISADKSISTAYLQWSSLKASDTAMYYCARYDYTSSMDYWGQGTLVTVSS VL: EIVLTQSPATLSLSPGERATLSCRASESVQYSGTSLMHWYQQKPGQAPRLLIYGASNVETGIPARFSGSGSGTDFTLTISSLEPEDFAVYYCQQNWKVPWTFGQGTKVEIKR .
**A:** 0.000844
